The origin of these recorded values is ChEMBL document CHEMBL3091382.

assay: Cytotoxicity against mouse betaTC3 cells assessed as cell viability at 25 uM after 48 hrs by MTT assay relative to control; format: cell-based, Beta-TC3; conditions: read-out: Activity
Classify: true (1) when viability at 48 h, 25 µM is strictly less than 40%; false (0) when viability at 48 h, 25 µM is not.

Field: example entries. Status: answers known.
[[record]]
compound = "CCCCCCCCCCCCCC(=O)OC[C@@H](O)COP(=O)([O-])OCC[N+](C)(C)C"
class = "true (1)"

[[record]]
compound = "CCCCCCCCCCCCCCCC(=O)OCC(COP(=O)([S-])OCC[N+](C)(C)C)OC (racemic)"
class = "false (0)"

[[record]]
compound = "CCCCCCCCCCCCCCCCCC(=O)OCC(COP(=O)([S-])OCC[N+](C)(C)C)OC (mixture of isomers)"
class = "false (0)"

[[record]]
compound = "CCCCCCCCCCCCCC(=O)OCC(COP(=S)([S-])OCC[N+](C)(C)C)OC (racemic)"
class = "true (1)"

[[record]]
compound = "CCCCCCCC/C=C\\CCCCCCCC(=O)OC[C@@H](O)COP(=O)([O-])OCC[N+](C)(C)C"
class = "false (0)"

[[record]]
compound = "CCCCCCCCCCCC(=O)OCC(COP(=S)([S-])OCC[N+](C)(C)C)OC (racemic)"
class = "false (0)"

[[record]]
compound = "CCCCCCCCCCCC(=O)OCC(COP(=O)([S-])OCC[N+](C)(C)C)OC (racemic)"
class = "false (0)"

[[record]]
compound = "CCCCCCCCCCCCCCCC(=O)OCC(COP(=S)([S-])OCC[N+](C)(C)C)OC (racemic)"
class = "true (1)"

[[record]]
compound = "CCCCCCCC/C=C\\CCCCCCCC(=O)OCC(COP(=S)([S-])OCC[N+](C)(C)C)OC (racemic)"
class = "false (0)"

[[record]]
compound = "CCCCCCCCCCCCCCCC(=O)OC[C@@H](O)COP(=O)([O-])OCC[N+](C)(C)C"
class = "true (1)"


Exam item: Answer whether the compound CCCCCCCCCCCC(=O)OC[C@@H](O)COP(=O)([O-])OCC[N+](C)(C)C has viability at 48 h, 25 µM strictly less than 40%
Marked response: false (0)

Exam item: Answer whether the compound CCCCCCCCCCCCCCCCCC(=O)OC[C@@H](O)COP(=O)([O-])OCC[N+](C)(C)C has viability at 48 h, 25 µM strictly less than 40%
Marked response: true (1)

Exam item: Report whether reported viability at 48 h, 25 µM is lower than 40% (strictly) for CCCCCCCC/C=C\CCCCCCCC(=O)OCC(COP(=O)([S-])OCC[N+](C)(C)C)OC (racemic)
Marked response: false (0)
